# SYSTEM UNDER TEST: beta-catenin (human)
# Sequence (B6V8E6 146-665 limits assumed): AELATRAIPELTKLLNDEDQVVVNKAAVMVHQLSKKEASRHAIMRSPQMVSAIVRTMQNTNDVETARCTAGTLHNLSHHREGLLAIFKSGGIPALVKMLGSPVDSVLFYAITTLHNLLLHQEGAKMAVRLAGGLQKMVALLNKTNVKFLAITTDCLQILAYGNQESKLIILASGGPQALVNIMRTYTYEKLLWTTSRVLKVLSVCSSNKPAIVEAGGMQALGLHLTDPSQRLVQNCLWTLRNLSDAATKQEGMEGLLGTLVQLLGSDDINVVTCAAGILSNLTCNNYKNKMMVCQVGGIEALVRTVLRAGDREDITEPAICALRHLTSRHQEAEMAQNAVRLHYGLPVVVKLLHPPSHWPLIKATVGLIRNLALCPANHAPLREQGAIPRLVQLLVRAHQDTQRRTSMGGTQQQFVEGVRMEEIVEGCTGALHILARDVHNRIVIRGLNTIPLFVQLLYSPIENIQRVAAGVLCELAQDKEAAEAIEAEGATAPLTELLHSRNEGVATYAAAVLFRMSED
# TEST DETAILS: cell-based or functional assay
*1 amine or outer side, *2 acyl side, *3 side chain or, on linkers, in order; H or OH if unused. Bridges are numbered along the chain shown (N, C = ends). Primed or numbered codes have the meaning given here. [ ]: non-standard residue; d: D form. B5(4) = 2-amino-2-(pent-4-en-1-yl)hept-6-enoic acid, stapled through each of its two olefin groups with other olefin-containing amino acid residues, O=C(C(CCCC=[*:3])(CCCC=[*:4])N[*:1])[*:2]; PyrS2″ = (S)-3-amino-1-((pent-4-en-1-yloxy)carbonyl)pyrrolidine-3-carboxylic acid (olefin stapling residue), C=CCCCOC(=O)N1CC[C@@](N[*:1])(C(=O)[*:2])C1; PyrS2(3) = (S)-3-amino-1-((pent-4-en-1-yloxy)carbonyl)pyrrolidine-3-carboxylic acid, olefin residue, C=CCCCOC(=O)N1CC[C@@](N[*:1])(C(=O)[*:2])C1; PyrS2(5) = (S)-3-amino-1-((pent-4-en-1-yloxy)carbonyl)pyrrolidine-3-carboxylic acid, C=CCCCOC(=O)N1CC[C@@](N[*:1])(C(=O)[*:2])C1; B5(5) = 2-amino-2-(pent-4-en-1-yl)hept-6-enoic acid (two olefin arms), C=CCCCC(CCCC=C)(N[*:1])C(=O)[*:2]; B5(3) = 2-amino-2-(pent-4-en-1-yl)hept-6-enoic acid, two olefin arms, C=CCCCC(CCCC=C)(N[*:1])C(=O)[*:2]; TriAzLys″ = azidolysine residue closed into triazole staple, O=C([C@H](CCCCn1cc([*:3])nn1)N[*:1])[*:2]; 2F3MeF″ = aromatic residue, Cc1cccc(C[C@H](N[*:1])C(=O)[*:2])c1F; Phe(3-COOH) = N[C@@H](Cc1cccc(C(=O)O)c1)C(=O)O; 2F3MeF = Cc1cccc(C[C@H](N[*:1])C(=O)[*:2])c1F; Bta = N[C@@H](Cc1csc2ccccc12)C(=O)O; αAllylPro = C=CC[C@@]1(C(=O)O)CCCN1; tBuAla = CC(C)(C)C[C@H](N)C(=O)O; 3Thi = N[C@@H](Cc1ccsc1)C(=O)O; TfeGA = not defined here; dGlnR = not defined here; AsnR = not defined here; GlnR = not defined here; sAla = not defined here; PL3 = not defined here; Aib = CC(C)(N)C(=O)O
Listing: NanoBRET Abs IC50 (bin >3.0 uM) of selected binders

Worked cases, answers included:
Ac-[αAllylPro]D[tBuAla][B5(3)]D[Phe(3-COOH)]QAFK[PyrS2(3)][2F3MeF″][Bta][GlnR]A-NH2 (bridge 10-14; not fully specified (bridges); printed as Ac-PL3-Asp-Npg-B5-Asp-3COOHF-Gln-Ala-Phe-Lys*3-PyrS2-2F3MeF-BztA-GlnR*3-Ala-NH2; reading uncertain) [I-60]: < 10 µM
Ac-[αAllylPro]DL[B5(4)]D[Phe(3-COOH)]AAF[dGlnR][PyrS2″][3Thi][Bta]K-NH2 (bridge 10-14; not fully specified (bridges); printed as Ac-PL3-Asp-Leu-B5-Asp-3COOHF-Ala-Ala-Phe-DGlnR*3-PyrS2-3Thi-BztA-Lys*3-NH2; reading uncertain; also: DGlnR*3 and Lys*3 marked *3) [I-13]: < 10 µM
Ac-[PL3]D[tBuAla][B5(4)]DDAAF[sAla][PyrS2″][3Thi][Bta][TriAzLys″]-NH2 (triazole 10-14; not fully specified (bridges); printed as Ac-PL3-Asp-Npg-B5-Asp-Asp-Ala-Ala-Phe-sAla*3-PyrS2-3Thi-BztA-TriAzLys*3-NH2; reading uncertain) [I-23]: < 10 µM

In plain terms, Ac-[αAllylPro]D[tBuAla][B5(5)]D[Phe(3-COOH)]AAFK[PyrS2(5)][3Thi][Bta][AsnR]-NH2 (bridge 10-14; not fully specified (bridges); printed as Ac-PL3-Asp-Npg-B5-Asp-3COOHF-Ala-Ala-Phe-Lys*3-PyrS2-3Thi-BztA-AsnR*3-NH2; reading uncertain) [I-34] has a documented NanoBRET Abs IC50 (bin >3.0 uM) of < 10 µM

In plain terms, Ac-[αAllylPro]D[tBuAla][B5(4)]D[TfeGA]AAFK[PyrS2″][2F3MeF][Bta][GlnR][Aib]-NH2 (bridge 10-14; not fully specified (bridges); reading uncertain; also: Lys*3 and GlnR*3 marked *3) [I-127] has a documented NanoBRET Abs IC50 (bin >3.0 uM) of < 10 µM
